Parameter: MRHA IC100. Scope: all listed entries.
- measuredTarget: CS3 on an ETEC strain (enterotoxigenic Escherichia coli)
- assayText: cell-based or functional assay
Reply numerically in µg/mL, unit not repeated.

Sample records with MRHA IC100:
VHH antibody 2R23 (monomeric nanobody) (VHH, Yeast-library clone, expressed in the E. coli periplasm) VHH: QVQLQESGGGLVQAGGSLRLSCAASGYIFWSYGYMGWYRQAPGKERELVATISRGGTTNYADSVKGRFTISRDNAKNTVYLQMNSLKPEDTAVYYCAAGRYAFGYFKYWGQGTQVTVSS    100
VHH antibody 2R215 (monomeric nanobody) (VHH, Yeast-library clone, expressed in the E. coli periplasm and purified by Ni-NTA; also called monomeric 2R215; monomeric VHH 2R215) VHH: QVQLQESGGGLVQAGGSLRLSCAASGNIFQDAEMGWYRQAPGKEREFVATIAYGGNTNYADSVKGRFTISRDNAKNTVYLQMNSLKPEDTAVYYCAVYTGVYYDRTTGGYVAFEYWGQGTQVTVSS    100
VHH antibody 1H4 (monomeric nanobody) (VHH) VHH: EVQLVESGGGLVQAGGSLRLSCAASSRTFNHYNIGWFRQAPGKEREFAAAITWNGRSTLYADSVKGRFTISRDNAKNTVYLQMNSLKPEDTAVYYCATLTTWEHKWEYNSQGQGTQVTVSS    100

Field request: MRHA IC100 | item: VHH antibody 1D7 (monomeric nanobody) (VHH) VHH: EVQLVESGGGLVQAGGSLTLSCAASERTFSYYVMAWFRQAPGKEREFVAGISMSGDSTKYADSVKGRFTISRDNAENTGYLQMNGLKPEDTAVYYCAADRDIRGNFRSWGRGTQVTVSS
50
